Here's a roundup of IC50 values tested on Lysine-specific histone demethylase 1A (Homo sapiens), taken from various published works.

[[record]]
compound = "COc1cc(/C=C/C(=O)c2ccc(Nc3cc(C)nc4nc(SCc5nc6ccccc6[nH]5)nn34)cc2)cc(OC)c1OC"
test_readout = "IC50"
result = "> 10 µM"

[[record]]
compound = "CC/C(=C\\c1ccccc1)[C@@H]1C[C@H]1N[C@H]1CC[C@H](NCCO)CC1 (racemic)"
test_readout = "IC50"
result = "< 0.0018 µM"

[[record]]
compound = "Cc1ccc(-c2cc3[nH]cc(C(=O)NC4CCNC4)c3cc2-c2ccc(C#N)cc2)cc1 (centres undefined)"
test_readout = "IC50"
result = "0.369 µM"

[[record]]
compound = "O=C(NCc1ccc2c(c1)OCO2)C1CC2OC1C(c1ccc(O)cc1)=C2c1ccc(O)cc1 (centres undefined)"
test_readout = "IC50"
result = "> 50 µM"

[[record]]
compound = "Cc1ccc(-c2cc3[nH]cc(C(=O)N4CCC(N)CC4)c3cc2-c2ccc(C#N)cc2)cc1C"
test_readout = "IC50"
result = "0.05 µM"


So what does the record say about IC50 for "Cc1ccc(-c2cc3[nH]cc(C(=O)N4CCC(CN)CC4)c3cc2-c2ccc(C#N)cc2)cc1" ?
0.135 µM

Now give it for "CCn1cc(C(=O)N2CCC(N)CC2)c2cc(-c3ccc(C#N)cc3)c(-c3ccc(C)cc3)cc21" too.
0.028 µM

Now give it for "Cn1cc2cc(-c3c(-c4ccc(C#N)cc4)nc(N4CCC(N)CC4)n(C)c3=O)ccc2n1" too.
< 0.1 µM

Now give it for "C#CCSc1nc(NNC(=N)N)c(C#N)c(-c2ccc([N+](=O)[O-])cc2)n1" too.
> 125 µM

Now give it for "Cc1cc(Nc2ccc(C(=O)O)cc2)n2nc(SCc3ccccc3)nc2n1" too.
> 10 µM

Now give it for "Cc1ccc(-c2cc3c(cc2-c2ccc(C#N)cc2)c(C(=O)N2CCC(N)CC2)cn3C(C)C)cc1" too.
0.015 µM

Now give it for COC(=O)c1ccc(NS(=O)(=O)C2CC3OC2C(c2ccc(O)cc2)=C3c2ccc(O)cc2)cc1 (centres undefined) too.
13.2 µM

Now give it for Nc1ccccc1NC(=O)c1ccc(CCCC(=O)Nc2ccc(C3CC3N)cc2)cc1 (centres undefined) too.
0.1 µM

Now give it for O=S(=O)(Oc1cncc(F)c1)C1CC2OC1C(c1ccc(O)cc1)=C2c1ccc(O)cc1 (centres undefined) too.
18.3 µM

Now give it for "CCCSc1nc2c(nnn2CCNC(=S)Nc2cccc3ccccc23)c(=O)[nH]1" too.
9.75 µM

Now give it for O=S(=O)(Oc1cccnc1Br)C1CC2OC1C(c1ccc(O)cc1)=C2c1ccc(O)cc1 (centres undefined) too.
12.3 µM

Now give it for "C#Cc1cccc(Nc2ncnc3ccc(Br)cc23)c1" too.
> 50 µM

Now give it for "CC(C)(C)OC(=O)N1CCN(C(=S)SCc2cn(Cc3cc4ccccc4oc3=O)nn2)CC1" too.
> 125 µM

Now give it for "C#CCSc1nc(Nc2ccc(OC)cc2)c(C#N)c(-c2ccc(Cl)cc2)n1" too.
> 125 µM

----------
Here's a roundup of IC50 values tested on UniProt:O60341, taken from various published works.
Number only, in µM; omit the unit.

# annotated cases, reported IC50 shown
[[record]]
molecule = "Cc1ccc(-c2cc3[nH]cc(C(=O)N4CCC(N)CC4)c3cc2-c2ccc([N+](=O)[O-])cc2)cc1"
test_readout = "IC50"
measured_number = 20

[[record]]
molecule = "COC(=O)c1ccccc1NS(=O)(=O)C1CC2OC1C(c1ccc(O)cc1)=C2c1ccc(O)cc1 (centres undefined)"
test_readout = "IC50"
measured_number = 30

[[record]]
molecule = "Cc1ccc(-c2cc3c(cc2-c2ccc(C#N)cc2)c(C(=O)N2CCC(N)CC2)cn3S(=O)(=O)c2ccc(C#N)cc2)cc1"
test_readout = "IC50"
measured_number = 0.11


Note: attention shifts to another entry.
So what does the record say about IC50 for O=C(Nc1ccccc1)c1ccc([C@@H]2C[C@H]2NCC2CC2)cc1 (racemic) ?
0.001

----------
Here's a roundup of pIC50 values tested on Lysine-specific histone demethylase 1A (Homo sapiens), taken from various published works.
A value of pIC50 is the negative decimal logarithm of a concentration given in moles per litre.

[[record]]
molecule = "CC(C)C[C@H](NC(=O)[C@H](CCCNN)NC(=O)[C@H](CO)NC(=O)[C@H](CCCNC(=N)N)NC(=O)[C@@H]1CCCN1)C(=O)N[C@H](C(=O)N[C@@H](CCCNC(=N)N)C(=O)N[C@@H](CCCCN)C(=O)N1CCC[C@H]1C(=O)N[C@@H](CO)C(=O)N[C@@H](CC(=O)O)C(=O)N1CCC[C@H]1C(=O)N[C@@H](CC(N)=O)C(=O)N[C@@H](CCCNC(=N)N)C(=O)N[C@@H](CCCCN)C(=O)N1CCC[C@H]1C(=O)N[C@@H](CC(N)=O)C(=O)N[C@@H](Cc1ccc(O)cc1)C(=O)N[C@@H](CO)C(=O)N[C@@H](CCC(N)=O)C(N)=O)C(C)C"
measured_number = 6.36

[[record]]
molecule = "O=C(c1ccc(OCCN2CCCCC2)cc1)c1c(-c2ccc(O)cc2)sc2cc(O)ccc12"
measured_number = 5.68

[[record]]
molecule = "O=C(Nc1ccc([C@@H]2C[C@H]2NCC2CC2)cc1)c1ccccc1 (racemic)"
measured_number = 8.85


So what does the record say about pIC50 for "COCCOc1cc2ncnc(Sc3nc[nH]n3)c2cc1OCCOC" ?
6.16

Now give it for "Cc1ccc(-c2cc3[nH]cc(C(=O)N4CCC(N)CC4)c3cc2-c2ccc(C#N)cc2)cc1F" too.
6.99

Now give it for N[C@H]1C[C@@H]1c1ccc(NC(=O)CCCCNC(=O)c2ccc(O)c3ncccc23)cc1 (relative stereo) too.
5.80

Now give it for "Cc1ccc(CS(=O)(=O)n2cc(C(=O)N3CCC(N)CC3)c3cc(-c4ccc(C#N)cc4)c(-c4ccc(C)cc4)cc32)cc1" too.
5.76

Now give it for "Cc1ccc(-c2cc3[nH]cc(C(=O)NCCCN)c3cc2-c2ccc(C#N)cc2)cc1" too.
6.82

Now give it for "Cc1ccc(-c2cc3[nH]cc(C(=O)N4CCC(N)CC4)c3cc2-c2ccc(C#N)cc2)c(F)c1" too.
7.20

----------
Here's a roundup of IC50 values tested on Lysine-specific histone demethylase 1A (Homo sapiens, UniProt O60341), taken from various published works.

[[record]]
compound = "C#CCN(C)CCC[C@H](NC(=O)[C@H](CO)NC(=O)[C@H](CCCNC(=N)N)NC(=O)[C@@H]1CCCN1)C(=O)N[C@@H](CC(C)C)C(=O)N[C@H](C(=O)N[C@@H](CCCNC(=N)N)C(=O)N[C@@H](CCCCN)C(=O)N1CCC[C@H]1C(=O)N[C@@H](CO)C(=O)N[C@@H](CC(=O)O)C(=O)N1CCC[C@H]1C(=O)N[C@@H](CC(N)=O)C(=O)N[C@@H](CCCNC(=N)N)C(=O)N[C@@H](CCCCN)C(=O)N1CCC[C@H]1C(=O)N[C@@H](CC(N)=O)C(=O)N[C@@H](Cc1ccc(O)cc1)C(=O)N[C@@H](CO)C(=O)N[C@@H](CCC(N)=O)C(N)=O)C(C)C"
measurement_target = "Lysine-specific histone demethylase 1A (Homo sapiens, UniProt O60341)"
result = "17 µM"

[[record]]
compound = "O=C(NC1CC1)C1CC2OC1C(c1ccc(O)cc1)=C2c1ccc(O)cc1 (configuration not stated)"
measurement_target = "Lysine-specific histone demethylase 1A (Homo sapiens, UniProt O60341)"
result = "> 50 µM"


So what does the record say about IC50 for "CCCSc1nc(NCCN)c2nnn(Cc3ccc(Cl)cc3)c2n1" ?
> 100 µM

Now give it for "COCCOc1cc2ncnc(N3CCN(C(C)=O)CC3)c2cc1OCCOC" too.
> 50 µM

Now give it for "Cl.NC/C(=C\F)[C@H]1Cc2ccccc2O1" too.
> 30 µM

Now give it for "Cc1ccc(-c2cc3[nH]cc(C(=O)N[C@H]4CC[C@H](N)CC4)c3cc2-c2ccc(C#N)cc2)cc1" too.
0.65 µM

Now give it for O=C(Oc1cccnc1Br)C1CC2OC1C(c1ccc(O)cc1)=C2c1ccc(O)cc1 (configuration not stated) too.
> 50 µM

Now give it for "Cc1cc(Nc2ccc(Br)cc2)n2nc(SCc3nc4ccccc4[nH]3)nc2n1" too.
> 10 µM

----------
pIC50: −log10 of the molar value.
Here's a roundup of pIC50 values tested on Lysine-specific histone demethylase 1A (Homo sapiens), taken from various published works.

[[record]]
molecule = "CCn1c(-c2ccc(OC)cc2)c(-c2ccc(C#N)c(F)c2)cc(N2CCC(N)CC2)c1=O"
measurement_target = "Lysine-specific histone demethylase 1A (Homo sapiens)"
test_readout = "pIC50"
result = "> 7.00"

[[record]]
molecule = "COCCOc1cc2ncnc(Sc3nnnn3-c3ccccc3)c2cc1OCCOC"
measurement_target = "Lysine-specific histone demethylase 1A (Homo sapiens)"
test_readout = "pIC50"
result = "< 4.30"

[[record]]
molecule = "C#Cc1cccc(Nc2ncnc3ccccc23)c1"
measurement_target = "Lysine-specific histone demethylase 1A (Homo sapiens)"
test_readout = "pIC50"
result = "< 4.30"

[[record]]
molecule = "Cc1cc(O)cc2oc(=O)cc(Cn3cc(CSC(=S)N4CCN(C(=O)OC(C)(C)C)CC4)nn3)c12"
measurement_target = "Lysine-specific histone demethylase 1A (Homo sapiens)"
test_readout = "pIC50"
result = "< 3.90"

[[record]]
molecule = "O=S(=O)(Oc1cccc(F)n1)C1CC2OC1C(c1ccc(O)cc1)=C2c1ccc(O)cc1 (centres undefined)"
measurement_target = "Lysine-specific histone demethylase 1A (Homo sapiens)"
test_readout = "pIC50"
result = 5.81

[[record]]
molecule = "Cc1ccc(-c2cc3[nH]cc(C(=O)N4CCC(N)CC4)c3cc2-c2ccc(S(N)(=O)=O)cc2)cc1"
measurement_target = "Lysine-specific histone demethylase 1A (Homo sapiens)"
test_readout = "pIC50"
result = 4.64

[[record]]
molecule = "O=S(=O)(Oc1ccc2ccccc2c1)C1CC2OC1C(c1ccc(O)cc1)=C2c1ccc(O)cc1 (centres undefined)"
measurement_target = "Lysine-specific histone demethylase 1A (Homo sapiens)"
test_readout = "pIC50"
result = 4.82

[[record]]
molecule = "Cc1cc(Nc2ccc(C(=O)O)cc2)n2nc(SCc3nc4ccccc4[nH]3)nc2n1"
measurement_target = "Lysine-specific histone demethylase 1A (Homo sapiens)"
test_readout = "pIC50"
result = "< 5.00"


Note: attention shifts to another entry.
So what does the record say about pIC50 for "Cn1c(N2CCC(N)CC2)nc(-c2ccc(C#N)cc2)c(-c2ccc3c(cnn3C)c2)c1=O" ?
> 7.00
